Target: Ephrin type-A receptor 3 (Homo sapiens)
Sequence (whole entry): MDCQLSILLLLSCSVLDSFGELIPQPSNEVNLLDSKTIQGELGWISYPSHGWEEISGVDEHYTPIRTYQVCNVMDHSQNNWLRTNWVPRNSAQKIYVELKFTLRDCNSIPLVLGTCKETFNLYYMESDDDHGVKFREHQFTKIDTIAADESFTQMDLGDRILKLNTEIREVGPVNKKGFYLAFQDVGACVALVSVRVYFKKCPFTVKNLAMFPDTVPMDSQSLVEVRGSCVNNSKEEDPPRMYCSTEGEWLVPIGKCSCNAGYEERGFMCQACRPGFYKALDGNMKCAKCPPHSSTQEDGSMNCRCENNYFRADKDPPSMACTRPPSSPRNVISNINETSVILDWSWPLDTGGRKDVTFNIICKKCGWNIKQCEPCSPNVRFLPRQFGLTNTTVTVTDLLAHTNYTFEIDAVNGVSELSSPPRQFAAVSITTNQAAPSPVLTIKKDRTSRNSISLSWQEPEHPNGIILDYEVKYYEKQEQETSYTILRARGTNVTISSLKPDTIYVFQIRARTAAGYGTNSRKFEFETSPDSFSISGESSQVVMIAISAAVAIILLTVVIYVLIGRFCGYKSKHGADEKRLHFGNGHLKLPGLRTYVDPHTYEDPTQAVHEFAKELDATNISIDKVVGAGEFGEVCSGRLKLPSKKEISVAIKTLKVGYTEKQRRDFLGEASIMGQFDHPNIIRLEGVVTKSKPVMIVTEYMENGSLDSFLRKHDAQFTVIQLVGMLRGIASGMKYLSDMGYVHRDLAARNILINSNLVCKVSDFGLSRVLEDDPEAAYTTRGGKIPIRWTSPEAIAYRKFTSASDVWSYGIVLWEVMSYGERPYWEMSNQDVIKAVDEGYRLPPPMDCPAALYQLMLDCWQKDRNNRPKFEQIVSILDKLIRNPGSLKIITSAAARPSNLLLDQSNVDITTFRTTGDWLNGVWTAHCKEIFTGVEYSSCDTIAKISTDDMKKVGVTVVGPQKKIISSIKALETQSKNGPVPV
Settings: at 10 µM
Assign classes using reported residual activity values and the ranges Low = under 70%, Medium = from 70% up to 90%, High = 90% and over, please.

Please review the entries below; each comes with its answer.
- item_smiles: "CC(C)n1cnc2/c(=N/c3cccc(Cl)c3)nc(NCCO)[nH]c21"
  target_or_test_system: "Ephrin type-A receptor 3 (Homo sapiens)"
  label_class: "Low"
- item_smiles: "CO[C@H]1C[C@@H]2CC[C@@H](C)[C@@](O)(O2)C(=O)C(=O)N2CCCC[C@H]2C(=O)O[C@H]([C@H](C)C[C@@H]2CC[C@@H](O)[C@H](OC)C2)CC(=O)[C@H](C)/C=C(\\C)[C@@H](O)[C@@H](OC)C(=O)[C@H](C)C[C@H](C)/C=C/C=C/C=C/1C"
  target_or_test_system: "Ephrin type-A receptor 3 (Homo sapiens)"
  label_class: "High"
- item_smiles: "Oc1c2ccccc2c2c3c(cccc13)N=N2"
  target_or_test_system: "Ephrin type-A receptor 3 (Homo sapiens)"
  label_class: "Low"
- item_smiles: "O=C1Nc2cc(Br)ccc2/C1=C1/Nc2ccccc2/C1=N\\O"
  target_or_test_system: "Ephrin type-A receptor 3 (Homo sapiens)"
  label_class: "Low"
- item_smiles: "CO[C@H]1[C@@H](OC)C[C@H](C)[C@@H](OC)C2=CC(=O)C=C(NC(=O)/C(C)=C/C=C/[C@H](OC)[C@@H](OC(N)=O)/C(C)=C/[C@@H]1C)C2=O"
  target_or_test_system: "Ephrin type-A receptor 3 (Homo sapiens)"
  label_class: "Medium"
- item_smiles: "CCOc1cc2ncnc(Nc3cccc(Br)c3)c2cc1OCC"
  target_or_test_system: "Ephrin type-A receptor 3 (Homo sapiens)"
  label_class: "Low"

Attention now shifts to the item below.
input: State the class of the molecule shown: Cn1nc2c3c(cccc31)C(=O)c1ccccc1-2
output: Medium
